From: ChEMBL document CHEMBL3085678

PROCEDURE DETAILS: Cytotoxicity against MDCK cells assessed as minimum cytotoxic concentration after 72 hrs by MTS assay
Assay type: cell-based, Canis lupus familiaris
RUN PARAMETERS: dog
Reported values of log10 of MCC at 72 h for individual entries
Transform log10 | Measure MCC at 72 h | Unit µM

For orientation, consider the following solved cases.
# COMPOUND, log10 of MCC at 72 h
records = [
    ("CC12CC34CN(C(=N)N)CC3(C1)CC2(C)C4", 0.60),
    ("N=C(N)N1CC23CC45CCCCC4(C2)CC3(C1)C5", 0.60),
    ("CCC12CC34CNCC3(C1)CC2(CC)C4", 1.30),
    ("CC12CC34CNCC3(C1)CC2(C)C4", 2.00),
    ("N=C(N)N1CC23CC4CC2(CC4C3)C1", 0.93),
]

# input for lookup
[in] Fill in: log10 of MCC at 72 h of CCC12CC34CN(C(=N)N)CC3(C1)CC2(CC)C4 is ___
[out] 0.60

----------
System: Influenza A virus (A/udorn/1972(H3N2))
Assay type: cell membranes
RUN PARAMETERS: 100 uM
Reported values of inhibition for individual entries
State the answer as a number, implicitly in %.

For orientation, consider the following solved cases.
# COMPOUND, inhibition, %
rows = [
    ("NCC12C3CCC4C3C3C(CCC31)C42", 12.8),
    ("NC12C3CCC4C3C3C(CCC31)C42", 4.8),
    ("CC12CC34CNCC3(C1)CC2(C)C4", 93.8),
    ("CN1CC23CC4(C)CC2(C1)CC4(C)C3", 87.9),
    ("C1CCC23CC45CNCC4(CC2(C1)C5)C3", 85.3),
]

[in] Fill in: inhibition of C1C2C1C1C3C4C5C6CC6C4C14CNCC54C23 (stereo unspecified) is ___
[out] 86.5

[in] Fill in: inhibition of C1NCC23CC4CC12CC4C3 is ___
[out] 93.9

[in] Fill in: inhibition of N=C(N)N1CC23CC4CC2(CC4C3)C1 is ___
[out] 95.7

[in] Fill in: inhibition of CC12CC3CC1(C)CC3(N)C2 is ___
[out] 93.6

[in] Fill in: inhibition of CN1CC23CC4CC2(CC4C3)C1 is ___
[out] 88.3

[in] Fill in: inhibition of CCC12CC34CN(C(=N)N)CC3(C1)CC2(CC)C4 is ___
[out] 42.8

[in] Fill in: inhibition of CC12CC34CN(C(=N)N)CC3(C1)CC2(C)C4 is ___
[out] 92.4

[in] Fill in: inhibition of NC12CC3CC(CC(C3)C1)C2 is ___
[out] 91

----------
PROCEDURE DETAILS: Cytotoxicity against MDCK cells assessed as minimum cytotoxic concentration after 24 hrs by MTS assay
Format: cell-based, Canis lupus familiaris
RUN PARAMETERS: dog
MEASURE NAME: MCC at 24 h

For orientation, consider the following solved cases.
# COMPOUND, MCC at 24 h
rows = [
    ("NC12CC3CC(CC(C3)C1)C2 [AMANTADINE]", "≥ 500 µM"),
    ("NC(=O)c1ncn([C@@H]2O[C@H](CO)[C@@H](O)[C@H]2O)n1 [RIBAVIRIN]", "> 100 µM"),
    ("N=C(N)N1CC23CC45CCCCC4(C2)CC3(C1)C5", "≥ 10 µM"),
    ("CC(N)C12CC3CC(CC(C3)C1)C2 (configuration not stated) [RIMANTADINE]", "≥ 500 µM"),
    ("C1CCC23CC45CNCC4(CC2(C1)C5)C3", "> 50 µM"),
    ("N=C(N)N1CC23CC4CC2(CC4C3)C1", "> 50 µM"),
]

# input for lookup
[in] Fill in: MCC at 24 h of CC12CC34CN(C(=N)N)CC3(C1)CC2(C)C4 is ___
[out] > 50 µM

----------
PROCEDURE DETAILS: Inhibition of Influenza A virus M2 ion channel by two-electrode voltage clamp assay
Reported values of pIC50 for individual entries
Interpret pIC50 as the negative base-10 log of the concentration measured in mol/L.

For orientation, consider the following solved cases.
# MOLECULE, VAL
rows = [
    ("NC1CC[Si]2(CCCCC2)CC1", 4.85),
    ("NC1CCC2(CC1)C1CC3CC(C1)CC2C3 (centres undefined)", 4.72),
]

[in] Fill in: pIC50 of Oc1ccc(CNC23CC4CC(CC(C4)C2)C3)c(O)c1 is ___
[out] 4.23

----------
System: MDCK
PROCEDURE DETAILS: Cytotoxicity against MDCK cells after 72 hrs by MTS assay
Format: cell-based, Canis lupus familiaris
RUN PARAMETERS: dog
Reported values of CC50 for individual entries

[in] CC50 of CN1CC23CC4CC2(CC4C3)C1 on MDCK?
[out] > 100 µM

[in] CC50 of NC12CC3CC(CC(C3)C1)C2 on MDCK?
[out] > 500 µM

[in] CC50 of C1NCC23CC4CC12CC4C3 on MDCK?
[out] ≥ 59 µM

----------
PROCEDURE DETAILS: Cytotoxicity against MDCK cells assessed as minimum cytotoxic concentration after 72 hrs by MTS assay
Assay type: cell-based, Canis lupus familiaris
RUN PARAMETERS: dog
MEASURE NAME: MCC at 72 h (µM)
State the answer as a number, implicitly in µM.

For orientation, consider the following solved cases.
# MOLECULE, U, VAL
data = [
    ("C1CCC23CC45CNCC4(CC2(C1)C5)C3", "µM", 4),
    ("C1NCC23CC4CC12CC4C3", "µM", 100),
]

[in] Fill in: MCC at 72 h of CC(N)C12CC3CC(CC(C3)C1)C2 (stereo unspecified) [RIMANTADINE] is ___
[out] 500

----------
Tested on: Influenza A virus (A/udorn/1972(H3N2))
Type: cell membranes
RUN PARAMETERS: 100 uM
MEASURE NAME: inhibition
Answer with the figure and its unit, nothing else.

For orientation, consider the following solved cases.
# SMILES STR, inhibition
rows = [
    ("CC12CC3CC1(C)CC3(CN)C2", "97.3%"),
    ("N=C(N)N1CC23CC45CCCCC4(C2)CC3(C1)C5", "93.1%"),
]

# input for lookup
[in] inhibition of CCC12CC34CNCC3(C1)CC2(CC)C4 on Influenza A virus (A/udorn/1972(H3N2))?
[out] 65%

----------
Reported values of MCC at 72 h for individual entries
PROCEDURE DETAILS: Cytotoxicity against MDCK cells assessed as minimum cytotoxic concentration after 72 hrs by MTS assay
Type: cell-based, Canis lupus familiaris
RUN PARAMETERS: dog

For orientation, consider the following solved cases.
# COMPOUND, VAL
records = [
    ("NC12CC3CC(CC(C3)C1)C2 [AMANTADINE]", "> 500 µM"),
    ("CN1CC23CC4(C)CC2(C1)CC4(C)C3", "≥ 20 µM"),
]

# input for lookup
[in] Fill in: MCC at 72 h of CN1CC23CC4CC2(CC4C3)C1 is ___
[out] ≥ 100 µM
